Taken from ChEMBL document CHEMBL1201862.

- Test system: CCRF-CEM
- Assay info: NCI tumour cell line growth inhibition, 48 h
Active and inactive are the calls of the source. Rule as the data show it: active = GI50 up to about 1.1 µM and inactive = higher.
Kindly supply the reported GI50 values for the records listed here.

The molecule listed as N#CC(c1ccccc1)(c1ccccc1)[C@@H](c1ccccc1)[C@H](Cc1ccccc1)NS(=O)(=O)c1ccccc1 shows GI50 equal to > 100 µM (inactive)

GET /value?item= COc1ccc(OC)c(C(=O)c2cccc(C(=O)c3cc(OC)ccc3OC)n2)c1 &field=GI50 returns 46.8 µM (inactive)

For reference, reported GI50 for Nc1ccccc1Nc1ccccc1C(=O)[O-].Nc1ccccc1Nc1ccccc1C(=O)[O-].[Zn+2] stands at 33 µM (inactive)

For record CC(N)C(C)c1ccccc1 (centres undefined) the listed GI50 is > 100 µM (inactive)

Briefly, GI50 measured for CC(C)(C)OC(=O)NCC(=O)NC1CC=CCC1NC(=O)CNC(=O)OC(C)(C)C (centres undefined) : > 100 µM (inactive)

// field: GI50; key: C[C@H]1C(=O)C2=C[C@H]1CCC(=O)[C@]1(C)CCCC(C)(C)[C@H]1C[C@H]2O ; value = 15.8 µM (inactive)

The measured GI50 associated with O=C1C=CC2(C=C1)O[C@H](Cc1ccccc1)[C@@H](Cc1ccccc1)O2 reads 0.102 µM (active)

Documented GI50 of O=C1C(Cl)=C(N[C@@H](Cc2ccccc2)C(=O)OCc2ccccc2)C(=O)c2c(O)ccc(O)c21 : 0.485 µM (active)

Value of measured GI50 for the entry CC1=NN(c2ccccc2)C(=O)C1/N=N/c1ccc(S(N)(=O)=O)cc1 (centres undefined) : > 100 µM (inactive)
